B1: CPEB3 Ribozyme (parent)
chain: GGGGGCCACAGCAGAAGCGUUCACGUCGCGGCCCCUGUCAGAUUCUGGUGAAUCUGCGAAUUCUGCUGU

Variants of: B1
protocol_notes: self-cleavage, relative activity (ratio to wild type); higher = more cleavage; co-transcriptional
Ranges used to classify self-cleavage: I = under 0.3, II = from 0.3 up to 0.9, III = 0.9 and over

Check out these entries, answers already filled in.
residue_change	class
U20C A51G	I
C6U U36G	I
G11A	III
A51C G56A	II
G30A U64C	II
U21A C33U	III

Category lookup for the variant U36A U55G
I

Field: class (self-cleavage) — entry: A16G G17A
I

Categorize the following entry: U49C U69G
III
